test method notes: Brain homogenate binding, equilibrium dialysis
Assay type: in vitro ADME
condition info: mouse, read-out: Binding Mouse Brain fu, br
assay readout: fraction unbound
A bare number is all that is needed in reply.

Field request: fraction unbound | item: COC[C@@H]1C[C@@H](NC(=O)c2ncc(-c3cccc(C(F)(F)F)c3)o2)CN1C#N [Example 1]
0.05

====

system: Cathepsin B (Homo sapiens, UniProt P07858)
test method notes: Cathepsin B IC50
Assay type: biochemical
assay readout: IC50

{"columns": ["compound", "system", "IC50"],
 "data": [
  ["COC[C@@H]1C[C@@H](NC(=O)c2ncc(-c3cc(C(F)(F)F)ccc3OC3CC3)o2)CN1C#N", "Cathepsin B (Homo sapiens, UniProt P07858)", "> 300 µM"],
  ["COC[C@H]1C[C@@H](NC(=O)c2ncc(-c3cccc(C(F)(F)F)c3)o2)CN1C#N", "Cathepsin B (Homo sapiens, UniProt P07858)", "> 300 µM"]
]}

Please turn your attention to the following entry.
Field request: IC50 | item: N#CN1CC[C@H](C(=O)Nc2cn(-c3cccc(C(F)(F)F)c3)cn2)C1 [Reference Example B, reference compound]
4.6 µM

====

test method notes: PK mouse 10 mg/kg PO
Format: in vivo
condition info: plasma, po; mouse 10 mg/kg; read-out: Oral F (%)
assay readout: bioavailability (%)
# number only, unit % dropped from output

Field request: bioavailability | item: COC[C@@H]1C[C@@H](NC(=O)c2ncc(-c3cccc(C(F)(F)F)c3)o2)CN1C#N
82

====

test method notes: Turbidimetric solubility
Type: physicochemical
condition info: aqueous buffer, kinetic from dmso stock
assay readout: solubility

Field request: solubility | item: COC[C@@H]1C[C@@H](NC(=O)c2ncc(-c3cccc(C(F)(F)F)c3)o2)CN1C#N
> 100 µM

====

test method notes: Mouse plasma stability
Format: in vitro ADME
condition info: mouse plasma; read-out: Stability Mouse plasma t1/2
# half-life per entry

Below, 2 compounds whose answers are already recorded.
{"columns": ["compound", "result"],
 "data": [
  ["N#CN1CC[C@@H](NC(=O)c2cc(-c3ccc(C(F)(F)F)cc3)no2)C1 [Reference Example A, reference compound]", "> 2 h"],
  ["N#CN1CC[C@H](C(=O)Nc2cn(-c3cccc(C(F)(F)F)c3)cn2)C1 [Reference Example B, reference compound]", "0.173 h"]
]}

Please turn your attention to the following entry.
Field request: half-life | item: COC[C@@H]1C[C@@H](NC(=O)c2ncc(-c3cccc(C(F)(F)F)c3)o2)CN1C#N
5.98 h

====

# IC50 per entry
system: UCHL1 (Homo sapiens, UniProt P09936)
Sequence (P09936 whole entry, species assumed): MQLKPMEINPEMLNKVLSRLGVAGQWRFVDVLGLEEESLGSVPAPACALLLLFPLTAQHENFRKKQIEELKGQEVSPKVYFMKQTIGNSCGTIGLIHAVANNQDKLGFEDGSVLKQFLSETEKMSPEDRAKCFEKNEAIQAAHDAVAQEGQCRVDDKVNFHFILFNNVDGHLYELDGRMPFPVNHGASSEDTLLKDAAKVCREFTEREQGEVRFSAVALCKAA
test method notes: UCHL1 DUB IC50
Type: biochemical

{"columns": ["molecule", "assay readout", "result"],
 "data": [
  ["COC[C@@H]1C[C@@H](NC(=O)c2ncc(-c3cc(C(F)(F)F)ccc3OC3CC3)o2)CN1C#N", "IC50", "> 300 µM"],
  ["C[C@@H]1C[C@@H](NC(=O)c2nnc(-c3cccc(C(F)(F)F)c3)o2)CN1C#N", "IC50", "> 300 µM"],
  ["C[C@@H]1C[C@@H](NC(=O)c2ncc(-c3cccc(C(F)(F)F)c3)o2)CN1C#N", "IC50", "280 µM"],
  ["COC[C@H]1C[C@@H](NC(=O)c2ncc(-c3cccc(C(F)(F)F)c3)o2)CN1C#N", "IC50", "149 µM"],
  ["COC[C@@H]1C[C@@H](NC(=O)c2nnc(-c3cc(C(F)(F)F)ccc3Cl)o2)CN1C#N", "IC50", "> 300 µM"],
  ["N#CN1CC[C@H](C(=O)Nc2cn(-c3cccc(C(F)(F)F)c3)cn2)C1 [Reference Example B, reference compound]", "IC50", "0.15 µM"],
  ["COC[C@@H]1C[C@@H](NC(=O)c2ncc(-c3cccc(C(F)(F)F)c3)o2)CN1C#N", "IC50", "> 300 µM"]
]}

Please turn your attention to the following entry.
Field request: IC50 | item: COC[C@@H]1C[C@@H](NC(=O)c2nnc(-c3cccc(C(F)(F)F)c3)o2)CN1C#N
> 300 µM

====

system: USP30 (Homo sapiens, UniProt Q70CQ3)
Construct: purchased Boston Biochem E582
Sequence (Q70CQ3 57-517 limits assumed): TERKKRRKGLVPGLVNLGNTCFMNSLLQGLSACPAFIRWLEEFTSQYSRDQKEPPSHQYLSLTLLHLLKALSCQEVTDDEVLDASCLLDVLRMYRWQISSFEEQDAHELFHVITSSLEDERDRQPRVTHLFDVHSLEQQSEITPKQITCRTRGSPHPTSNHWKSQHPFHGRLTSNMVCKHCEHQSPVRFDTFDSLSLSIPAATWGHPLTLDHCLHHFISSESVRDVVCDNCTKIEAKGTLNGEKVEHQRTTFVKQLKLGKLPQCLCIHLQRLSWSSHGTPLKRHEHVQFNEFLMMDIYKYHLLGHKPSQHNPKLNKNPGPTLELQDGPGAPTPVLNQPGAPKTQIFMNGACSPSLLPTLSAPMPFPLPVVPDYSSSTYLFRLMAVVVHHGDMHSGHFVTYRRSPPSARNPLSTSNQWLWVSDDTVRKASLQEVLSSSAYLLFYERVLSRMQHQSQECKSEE
test method notes: USP30 biochemical IC50 assay (fluorescence polarisation)
condition info: USP30 biochemical IC50 assay; read-out: USP30 IC50
pIC50: −log10 of the molar value.
Is pIC50 at least 8? Then satisfied. If not, not satisfied.

{"columns": ["compound", "label"],
 "data": [
  ["COC[C@@H]1C[C@@H](NC(=O)c2nnc(-c3cccc(C(F)(F)F)c3)o2)CN1C#N", "not satisfied"]
]}

Threshold query (pIC50 >= 8) on COC[C@@H]1C[C@@H](NC(=O)c2ncc(-c3cc(C(F)(F)F)ccc3OC3CC3)o2)CN1C#N
satisfied

Threshold query (pIC50 >= 8) on COC[C@@H]1C[C@@H](NC(=O)c2nnc(-c3cc(C(F)(F)F)ccc3Cl)o2)CN1C#N
not satisfied

Threshold query (pIC50 >= 8) on N#CN1CC[C@H](C(=O)Nc2cn(-c3cccc(C(F)(F)F)c3)cn2)C1 [Reference Example B, reference compound]
not satisfied

Threshold query (pIC50 >= 8) on CS(=O)(=O)C[C@@H]1C[C@@H](NC(=O)c2ncc(-c3cccc(C(F)(F)F)c3)o2)CN1C#N
satisfied

====

system: Cathepsin V (Homo sapiens, UniProt O60911)
Sequence (O60911 114-334, species assumed): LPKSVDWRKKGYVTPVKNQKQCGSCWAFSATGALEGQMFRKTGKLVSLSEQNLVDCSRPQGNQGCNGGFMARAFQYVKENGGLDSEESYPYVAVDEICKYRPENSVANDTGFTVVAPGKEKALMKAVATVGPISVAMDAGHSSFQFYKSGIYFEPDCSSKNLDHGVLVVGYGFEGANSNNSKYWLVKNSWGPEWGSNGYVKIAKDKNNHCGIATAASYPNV
test method notes: Cathepsin V IC50
Format: biochemical
# IC50 per entry
# number only, unit µM dropped from output

Field request: IC50 | item: COC[C@@H]1C[C@@H](NC(=O)c2ncc(-c3cc(C(F)(F)F)ccc3OC3CC3)o2)CN1C#N [Example 9]
101

Field request: IC50 | item: N#CN1CC[C@@H](NC(=O)c2cc(-c3ccc(C(F)(F)F)cc3)no2)C1 [Reference Example A, reference compound]
7.2

Field request: IC50 | item: C[C@@H]1C[C@@H](NC(=O)c2ncc(-c3cccc(C(F)(F)F)c3)o2)CN1C#N [Example 2]
56
